Tested on: AGS gastric carcinoma cells [heterozygous G12D]
experimental.details: Cancer cell line proliferation (CellTiter-Glo), AGS
Format: cell-based
condition.label: Homo sapiens, 72 hr treatment, read-out: AGS CTG (EC50)
EC50 for assorted compounds

{"compound": "C#Cc1c(F)ccc2cc(O)cc(-c3ncc4c(N5CC6CCC(C5)N6)nc(OCC5(CN6CCN(CC#Cc7cn(Cc8ncc(C)c(OC)c8C)c8nc(N)nc(Cl)c78)CC6)CC5)nc4c3F)c12 [Compound 211]", "EC50": "< 100 nM"}
{"compound": "C#Cc1c(F)ccc2cc(O)cc(-c3nc(OC)c4c(N5CC6CCC(C5)N6)nc(OCC5(CN6CCC(C7CCN(Cc8ccc(-n9c(C(=O)NC(C)C(F)(F)F)nnc9-c9cc(C(C)C)c(O)cc9O)cc8)CC7)CC6)CC5)nc4c3F)c12 (stereo not drawn) [Compound 182]", "EC50": "< 100 nM"}
{"compound": "COc1cccc2cccc(-c3ncc4c(N5CC6CCC(C5)N6)nc(OC[C@@H]5C[C@H](N6CCN(C(=O)C7CCN(Cc8ccc9c(c8)CN(C(=O)c8cc(C(C)C)c(O)cc8O)C9)CC7)CC6)CN5C)nc4c3F)c12 [Compound 104]", "EC50": "100 to 1000 nM"}
{"compound": "CC(C)c1cc(C(=O)N2Cc3ccc(CN4CCN([C@H]5C[C@@H](COc6nc(N7CC8CNC(C8)C7)c7cnc(-c8cc(O)cc9ccccc89)c(F)c7n6)N(C)C5)CC4)cc3C2)c(O)cc1O (stereo partly drawn) [Compound 74]", "EC50": "100 to 1000 nM"}
{"compound": "C#Cc1cccc2cc(O)cc(-c3ncc4c(N5CC6CCC(C5)N6)nc(OCC5(CN6CCN(CC7CCN(Cc8ccc9c(c8)CN(C(=O)c8cc(C(C)C)c(OC)cc8O)C9)CC7)CC6)CC5)nc4c3F)c12 [Compound 144]", "EC50": "< 100 nM"}
{"compound": "C#Cc1cccc2cc(O)cc(-c3ncc4c(N5CC6CCC(C5)N6)nc(OCC5(CN6CCC(OC7CCN(Cc8ccc(-n9c(C(=O)NCC(F)(F)F)nnc9-c9cc(C(C)C)c(O)cc9O)cc8)CC7)CC6)CC5)nc4c3F)c12 [Compound 132]", "EC50": "< 100 nM"}
{"compound": "C#Cc1cccc2cc(O)cc(-c3ncc4c(N5CC6CCC(C5)N6)nc(OC[C@@H]5C[C@H](N6CCN(Cc7ccc8c(c7)CN(C(=O)c7cc(C(C)C)c(O)cc7O)C8)CC6)CN5C)nc4c3F)c12 [Compound 86]", "EC50": "100 to 1000 nM"}
{"compound": "CC(C)c1cc(-c2nnc(C(=O)NCC(F)(F)F)n2-c2ccc(CN3CCN([C@H]4C[C@@H](COc5nc(N6CC7CCC(C6)N7)c6cnc(-c7cccc8cccc(F)c78)c(F)c6n5)N(C)C4)CC3)cc2)c(O)cc1O [Compound 109]", "EC50": "< 100 nM"}
{"compound": "C#Cc1c(F)ccc2cc(O)cc(-c3ncc4c(N5CC6CCC(C5)N6)nc(OCC5CN(C6CN(Cc7ccc8c(c7)CN(C(=O)c7cc(C(C)C)c(O)cc7O)C8)C6)C5)nc4c3F)c12 [Compound 193]", "EC50": "100 to 1000 nM"}
